Test System: Cholinesterase (Homo sapiens)
Sequence (P06276 whole entry): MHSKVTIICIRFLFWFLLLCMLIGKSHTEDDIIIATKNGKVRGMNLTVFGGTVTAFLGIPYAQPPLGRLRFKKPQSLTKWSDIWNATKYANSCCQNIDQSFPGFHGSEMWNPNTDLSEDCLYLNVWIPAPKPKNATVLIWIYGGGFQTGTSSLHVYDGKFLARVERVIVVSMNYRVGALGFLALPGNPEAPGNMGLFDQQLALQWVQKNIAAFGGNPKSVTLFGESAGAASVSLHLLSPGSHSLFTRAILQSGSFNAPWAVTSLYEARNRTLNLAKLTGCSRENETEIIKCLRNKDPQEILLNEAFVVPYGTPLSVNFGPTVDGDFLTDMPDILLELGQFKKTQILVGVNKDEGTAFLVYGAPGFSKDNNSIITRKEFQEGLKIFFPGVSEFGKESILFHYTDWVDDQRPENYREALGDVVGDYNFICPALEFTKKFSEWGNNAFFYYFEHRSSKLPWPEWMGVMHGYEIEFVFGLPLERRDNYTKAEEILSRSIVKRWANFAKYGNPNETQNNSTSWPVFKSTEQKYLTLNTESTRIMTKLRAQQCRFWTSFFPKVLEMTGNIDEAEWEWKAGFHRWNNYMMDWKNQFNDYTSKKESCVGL
Assay Method Text: Inhibition of human serum BuChE using butyrylthiocholine iodide as substrate preincubated for 5 mins followed by substrate addition measured over 5 mins by UV-Vis spectrophotometric analysis
Parameter Measured: IC50

compound=[N-]=[N+]=Nc1cc(CN2CCC(C=O)CC2)nc2ccccc12 reported_value="> 10 µM"
compound=COc1cc2c(cc1OC)C(=O)/C(=C/C1CCN(Cc3cc(N=[N+]=[N-])c4ccccc4n3)CC1)C2 reported_value="> 10 µM"
compound=COc1cc2c(cc1OC)C(=O)/C(=C/C1CCN(Cc3cc(Cl)c4ccccc4n3)CC1)C2 reported_value="> 10 µM"
compound="COc1cc2c(cc1OC)C(=O)C(CC1CCN(Cc3cc(Cl)c4ccccc4n3)CC1)C2 (stereo not drawn)" reported_value="5.99 µM"
compound="COc1cc2c(cc1OC)C(=O)C(CC1CCN(Cc3cc(N)c4ccccc4n3)CC1)C2 (stereo not drawn)" reported_value="6.54 µM"

GET /value?item= COc1cc2c(cc1OC)C(=O)/C(=C/C1CCN(Cc3cc(N)c4ccccc4n3)CC1)C2 &field=IC50 returns 3.69 µM

# IC50 (compound: OCC1CCN(Cc2cc(Cl)c3ccccc3n2)CC1 ) is > 10 µM

Recorded IC50 (compound O=CC1CCN(Cc2cc(Cl)c3ccccc3n2)CC1 ): > 10 µM

---

# IC50 listing for each entry below
Test System: Acetylcholinesterase (Homo sapiens)
Sequence (P22303 whole entry): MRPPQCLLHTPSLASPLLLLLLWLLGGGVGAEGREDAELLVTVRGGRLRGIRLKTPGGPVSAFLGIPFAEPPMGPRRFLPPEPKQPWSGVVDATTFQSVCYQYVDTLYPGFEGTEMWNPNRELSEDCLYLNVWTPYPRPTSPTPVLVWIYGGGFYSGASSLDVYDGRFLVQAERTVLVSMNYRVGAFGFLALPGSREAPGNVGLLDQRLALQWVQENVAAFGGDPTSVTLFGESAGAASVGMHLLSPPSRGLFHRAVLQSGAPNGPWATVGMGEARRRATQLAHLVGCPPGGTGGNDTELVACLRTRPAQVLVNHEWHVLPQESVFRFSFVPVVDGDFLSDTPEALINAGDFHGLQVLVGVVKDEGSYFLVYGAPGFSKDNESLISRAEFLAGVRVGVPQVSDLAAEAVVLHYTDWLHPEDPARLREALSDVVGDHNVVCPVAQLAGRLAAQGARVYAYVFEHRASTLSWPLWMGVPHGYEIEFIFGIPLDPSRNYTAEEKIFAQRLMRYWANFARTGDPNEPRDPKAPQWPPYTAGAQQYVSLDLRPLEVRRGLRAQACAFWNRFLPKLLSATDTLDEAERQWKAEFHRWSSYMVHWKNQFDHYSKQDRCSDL

compound=[N-]=[N+]=Nc1cc(CN2CCC(C=O)CC2)nc2ccccc12 test_system="Acetylcholinesterase (Homo sapiens)" reported_value="> 10 µM"

// returns IC50 for COc1cc2c(cc1OC)C(=O)/C(=C/C1CCN(Cc3cc(N=[N+]=[N-])c4ccccc4n3)CC1)C2 with Acetylcholinesterase (Homo sapiens); value = 4.88 µM

Reading of IC50 for OCC1CCN(Cc2cc(Cl)c3ccccc3n2)CC1 with Acetylcholinesterase (Homo sapiens): > 10 µM

Given the compound COc1cc2c(cc1OC)C(=O)/C(=C/C1CCN(Cc3cc(N)c4ccccc4n3)CC1)C2 and test system Acetylcholinesterase (Homo sapiens), the measured IC50 is 0.014 µM

Item COc1cc2c(cc1OC)C(=O)/C(=C/C1CCN(Cc3cc(Cl)c4ccccc4n3)CC1)C2 was tested on Acetylcholinesterase (Homo sapiens); the reported IC50 is > 10 µM

Recorded IC50 for COc1cc2c(cc1OC)C(=O)C(CC1CCN(Cc3cc(N)c4ccccc4n3)CC1)C2 (stereo not drawn) on Acetylcholinesterase (Homo sapiens) was 0.71 µM

Entry O=CC1CCN(Cc2cc(Cl)c3ccccc3n2)CC1 , Acetylcholinesterase (Homo sapiens) data, IC50 value: > 10 µM

Readout IC50 for COc1cc2c(cc1OC)C(=O)C(CC1CCN(Cc3cc(Cl)c4ccccc4n3)CC1)C2 (stereo not drawn) , test system Acetylcholinesterase (Homo sapiens), was > 10 µM
